# TEST PROTOCOL: Solubility of TMB in a series of buffers
# Type: physicochemical
# APPLIED CONDITIONS: sulfate buffer, pH 5, aqueous buffer; read-out: Solubility at 30.9 C

COMPOUND: Cc1cc(-c2cc(C)c(N)c(C)c2)cc(C)c1N [TMB, 3,3',5,5'-tetramethylbenzidine]
solubility (µM): 150

====

# TEST PROTOCOL: Solubility of TMB in a series of buffers
# Type: physicochemical
# APPLIED CONDITIONS: aqueous buffer; malonate buffer, pH 5.0, 0.10M; read-out: Solubility at 30.9 C

QUERY SMILES: Cc1cc(-c2cc(C)c(N)c(C)c2)cc(C)c1N
solubility: 160 µM
